Tested on: KRas Q61H mutant
Assay: Ras GTP binding domain inhibition assay (Cy3-GTP/Cy5-GTP competition)
Design: species or system human
Settings: 20 μM; without SOS
Source text: The following method was developed as specific assay for the following proteins: KRas wild type, KRas Q61H mutant, KRas G12C mutant, KRas G12D mutant, HRas wild type, Rac-1, and Rho-A. […] The small GTPases proteins: KRas wild type. KRas Q61H mutant, KRas G12C mutant, KRas G12D mutants, HRas wild type, Rac-1, and Rho-A were expressed as His-tagged proteins. In addition, the Guanosine nucleotide Exchange Factor (GEF) Sos protein (residues 556-1049) was expressed as a His-tagged protein. […]
measurement type: KRas Q61H mutant: % inh.

[[record]]
compound = "Cn1ccc(-c2sc3nc(-c4nccn4C)nc(N4CCC5(CCOC5)C4)c3c2-c2ccccc2)n1 (stereo not shown) [drawing 857]"
study_target = "KRas Q61H mutant"
recorded_value = "B (26-50% inhibition)"

[[record]]
compound = "COC1CCN(c2nc(-c3nccn3C)nc3sc(-c4ccn(C)n4)c(-c4ccccc4)c23)CC1 [drawing 856]"
study_target = "KRas Q61H mutant"
recorded_value = "B (26-50% inhibition)"

[[record]]
compound = "O=C(NC1CCCC1)c1nc(-c2ccccn2)nc(O)c1O [drawing 812]"
study_target = "KRas Q61H mutant"
recorded_value = "C (51-75% inhibition)"

[[record]]
compound = "COc1cc(-c2sc3nc(-c4nccn4C)nc(N4CCC(OC)C4)c3c2-c2ccccc2)ccn1.Cl (stereo not shown)"
study_target = "KRas Q61H mutant"
recorded_value = "C (51-75% inhibition)"

[[record]]
compound = "CC(C)CN(C)C(=O)c1nc(-c2ccccn2)nc(O)c1O [drawing 798]"
study_target = "KRas Q61H mutant"
recorded_value = "B (26-50% inhibition)"


Shift focus to the following entry.
GET /values?readout=KRas Q61H mutant: % inh.&system=KRas Q61H mutant&item= O=C(c1nc(-c2ccccn2)nc(O)c1O)N1CCOCC1 [drawing 800]
B (26-50% inhibition)
